Listed here: items and their measured inhibition.
- tested.on: Caspase-3 (Homo sapiens)
- assay.details: CASP3 blockers, validation, counterassay for UBE2N polyubiquitination inhibitor project, biochemical, one-dose (AID 488856);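 further: plate controls were DMSO with caspase-3 for no effect and DMSO wells lacking enzyme for full effect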
- recorded.conditions: Recombinant caspase-3, Caspase-Glo 3/7 luminescence, 60 min; at 20 µM; active compounds read high
Screen size: about 1,400 compounds; about 50 (4%) were called active. Only a sample is shown.
Answer with a number only, understood to be in %.

// below: answered molecules
| molecule | inhibition / % |
| --- | --- |
| CCN(CC)CCNC(=O)c1ccc(NC(=O)c2cc(-c3ccncc3)nc3ccccc23)cc1 | -3.4 |
| OCCNc1nc(Nc2ccc(Cl)c(Cl)c2)nc2ccccc12 | -0.1 |

Record O=S(=O)(c1ccc(NC(=S)NN=C(C2CC2)C2CC2)cc1)N1CCOCC1 ; system Caspase-3 (Homo sapiens); inhibition = 3.2

* * *

- tested.on: Caspase-3 (Homo sapiens)
- assay.details: CASP3 blockers, validation, counterassay for UBE2N polyubiquitination inhibitor project, biochemical, one-dose (AID 488856);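 further: plate controls were DMSO with caspase-3 for no effect and DMSO wells lacking enzyme for full effect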
- recorded.conditions: Recombinant caspase-3, Caspase-Glo 3/7 luminescence, 60 min; at 20 µM
Out of some 1,400 compounds screened, about 50 (4%) were called active.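 How the source made its calls: active means mean inhibition across replicates above about 26% (limit read from the data); inactive means the rest.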 A selection follows.
Pick from label 1 (active), label 0 (inactive) when you respond.

| molecule | class.assignment |
| --- | --- |
| CCCCN(C)CCCNC(=O)c1cc(-c2cccs2)nc2ccccc12 | label 0 |

Lookup: Which outcome was assigned to CN(C)CCCN(C(=O)c1ccc(S(=O)(=O)N2CCCCCC2)cc1)c1nc2cc3c(cc2s1)OCCO3 in this test?
Found: label 0

Lookup: Which outcome was assigned to CCCCCCCCCCOC(=O)Cn1c(COc2cccc(OC)c2)[n+](C)c2ccccc21 in this test?
Found: label 0

Lookup: Which outcome was assigned to Cc1c(CN2CCC(CO)(CCOc3ccccc3)CC2)[nH]c2ccc(Cl)cc12 in this test?
Found: label 0

* * *

- tested.on: Caspase-3 (Homo sapiens) (UniProt P42574)
- Sequence (P42574 whole entry, looked up): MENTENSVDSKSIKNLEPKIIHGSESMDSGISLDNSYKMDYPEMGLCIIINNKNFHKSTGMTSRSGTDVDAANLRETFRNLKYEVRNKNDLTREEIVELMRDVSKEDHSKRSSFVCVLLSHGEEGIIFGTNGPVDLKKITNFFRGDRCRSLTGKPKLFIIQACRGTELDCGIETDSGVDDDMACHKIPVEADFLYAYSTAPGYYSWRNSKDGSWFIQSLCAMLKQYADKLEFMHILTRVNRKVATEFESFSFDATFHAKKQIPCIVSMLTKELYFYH
- assay.details: CASP3 blockers, validation, counterassay for UBE2N polyubiquitination inhibitor project, biochemical, one-dose (AID 488856);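 further: plate controls were DMSO with caspase-3 for no effect and DMSO wells lacking enzyme for full effect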
- recorded.conditions: Recombinant caspase-3, Caspase-Glo 3/7 luminescence, 60 min; at 20 µM; active compounds read high
Hit rate of the full screen: of about 1,400 compounds, about 50 (4%) were called active. Only a sample is shown.
Listed here: items and their measured inhibition.
Answer with a number only, understood to be in %.

// below: answered molecules
| molecule | inhibition (%) |
| --- | --- |
| C#CCOCCOCCOCCNc1nc(N2CCN(C(=O)C(Cc3ccc(O)cc3)n3cc(C(N)CC(C)C)nn3)CC2)nc(N2CCN(C(=O)C(Cc3ccc(O)cc3)n3cc(C(N)C(C)CC)nn3)CC2)n1 (centres undefined) | 0.7 |
| C#CCOCCOCCOCCNc1nc(N2CCN(C(=O)CCCCCCCCCCNC(=O)[C@H]([C@@H](C)CC)n3cc(CCCCN=C(N)N)nn3)CC2)nc(N2CCN(C(=O)CCCCCCCCCCNC(=O)[C@H](CO)n3cc(CCCSC)nn3)CC2)n1 | -0.7 |
| Cc1ccc(C(=O)N/C(=C/c2ccc(-c3cccc([N+](=O)[O-])c3)o2)C(=O)NCCCN(C)C)cc1 | -0.7 |
| CCOC(=O)c1ccc(NC(=O)c2nc[nH]c2C(=O)NCc2ccccc2)cc1 | 1.9 |
| CN(C)CCCN(C(=O)c1ccc(S(=O)(=O)N2CCCCCC2)cc1)c1nc2ccc(Br)cc2s1 | 0.1 |
| NC[C@H](Cc1ccccc1)NCCc1cc(C(F)(F)F)cc(C(F)(F)F)c1 | -2.6 |
| Cc1ccc(-c2noc(CCC(=O)Nc3ccccc3N3CCN(C)CC3)n2)cc1 | -3.5 |
| C=C1c2c(Cl)ccc(O)c2C(O)=C2C(=O)[C@]3(O)C(O)=C(C(N)=O)C(=O)[C@@H](N(C)C)[C@@H]3[C@@H](O)C12 (some centres undefined) | 1.1 |

Moving on to the next molecule.
inhibition recorded for this molecule, c1ccc(C[C@H]2CNCCN2CCC23CC4CC(CC(C4)C2)C3)cc1 , is -0.9
